B1: CPEB3 Ribozyme (parent)
chain: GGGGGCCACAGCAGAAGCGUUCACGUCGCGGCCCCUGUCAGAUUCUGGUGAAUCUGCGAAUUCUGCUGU

variants of: B1; assay: self-cleavage, relative activity (ratio to wild type); higher = more cleavage; co-transcriptional
Catalogue of self-cleavage values

The cases that follow already have their self-cleavage on record.
C45G | 0.986
G5U U26A | 0.132
A42U U61A | 0.744
G41U U53C | 0.364
G48A C54A | 0.998
C24A G56U | 0.576
G2U C29A | 0.0519
U44G U69C | 1.04
G56A G68A | 0.995
U46C A52G | 1

Ask | Requested read-out: self-cleavage. Entry: U20A G65U
Reply | 0.19

Ask | What self-cleavage value was documented for this variant, G11U C18A ?
Reply | 0.0522

Ask | Give its self-cleavage value. Item: A52G U69G
Reply | 1.07

Ask | Look up self-cleavage for this variant: U20C C33A
Reply | 0.286

Ask | // self-cleavage lookup, key: C39A U43A
Reply | 0.386
